Assay: Half life in mouse plasma at 50 mg/kg, po
Assay type: ADME, organism-based

| compound-string | half-life, h |
| --- | --- |
| CC(C)O[P@@]1(=O)OC[C@H]2O[C@@H](n3ccc(=O)[nH]c3=O)[C@@]3(CCO3)[C@@H]2O1 | 4.4 |

====

Experiment: Half life in dog plasma at 50 mg/kg, po
Assay type: ADME, organism-based, Canis lupus familiaris
experimental-readout: half-life (h)

| compound-string | reported-result |
| --- | --- |
| CC(C)O[P@@]1(=O)OC[C@H]2O[C@@H](n3ccc(=O)[nH]c3=O)[C@@]3(CCO3)[C@@H]2O1 | 7.3 |
